target: T1, Beclin1 coiled coil domain (wild type) (rat, UniProt Q91XJ1 174-266); assay: isothermal titration calorimetry, wild type Beclin1 coiled coil domain and UVRAG (228-298)
T1 construct: residues 175-266; it pairs 1:1 with UVRAG; also called CC; entire Beclin1 coiled coil domain
T1 sequence (Q91XJ1 174-266 limits assumed): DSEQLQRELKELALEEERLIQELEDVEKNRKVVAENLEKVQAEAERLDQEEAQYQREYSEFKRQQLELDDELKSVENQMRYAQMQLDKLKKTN
pKd: −log10 of the molar value.
readoutName: pKd

Looking up UVRAG (228-298) (other) TSNELKKESESLRLKILVLRNELERQKKALGREVAFLHKQQMALQDKGSAFSTEHGKLQLQKDSLSELRKE , I see its pKd listed as ~6.62

Where do the numbers come from? From patent US20180002381A1.
